All values here come from the antibiotic and cytotoxicity screens of Wong et al. (2023).

Tested on: S. aureus RN4220
EXPERIMENT: growth inhibition call (relative growth <= 0.2)
MEASUREMENT_CONTEXT: 50 µM
In all, about 39,000 compounds went through this assay and about 500 (1.3%) were called active. This is one part of a sample in which actives are shown more often than they occur.
Log the outcome using a class from YES (active), NO (inactive)

# COMPOUND, LABEL_VALUE
data = [
    ("CC(C)NC(=O)N(C)C[C@@H]1Oc2c(NS(=O)(=O)c3ccc(F)cc3)cccc2C(=O)N([C@H](C)CO)C[C@H]1C", "NO"),
]

Given c1ccc2c(c1)ccc1cc3c(ccc4ccccc43)cc12 , state the outcome it received in this test.
NO

Give the logged outcome of this assay for the following compound: Cc1noc(C)c1NC(=O)N(C)C[C@@H]1Oc2cc(Br)ccc2S(=O)(=O)N([C@@H](C)CO)C[C@H]1C
NO

---

System: S. aureus RN4220
EXPERIMENT: growth inhibition call (relative growth <= 0.2)
MEASUREMENT_CONTEXT: 50 µM
Among all 39,000 compounds or so, about 500 (1.3%) were called active. The entries come from a sample that favours actives as a whole.
Return exactly one item of active, inactive

# COMPOUND, LABEL_VALUE
records = [
    ("C[C@@H]1CCCCO[C@H](CN(C)C)[C@H](C)CN([C@H](C)CO)C(=O)c2cc(NS(=O)(=O)c3cn(C)cn3)ccc2O1", "inactive"),
    ("C[C@H]1CN([C@@H](C)CO)C(=O)c2cc(NC(=O)C3CCCCC3)ccc2O[C@H]1CN(C)Cc1ccc(Cl)c(Cl)c1", "inactive"),
    ("Cc1oc(=O)oc1CN1CCN(c2cc3c(cc2F)c(=O)c(C(=O)O)c2n3C(C)S2)CC1 (configuration not stated)", "active"),
    ("Cn1cnc(CCNC(=O)C[C@H]2CC[C@H]3[C@@H](COC[C@@H](O)CN3C(=O)Nc3ccc(C(F)(F)F)cc3)O2)c1", "active"),
    ("C[C@@H]1CCCCO[C@H](CN(C)C(=O)CCC(F)(F)F)[C@H](C)CN([C@H](C)CO)C(=O)c2cc(NS(=O)(=O)c3cccs3)ccc2O1", "inactive"),
    ("Cn1cnc(CCNC(=O)C[C@H]2CC[C@@H]3[C@H](COC[C@H](O)CN3C(=O)Nc3ccc(C(F)(F)F)cc3)O2)c1", "active"),
]

Can you look up the reported call for C[C@H](CO)N1C[C@H](C)[C@@H](CN(C)Cc2ccc(C(F)(F)F)cc2)Oc2ccc(NC(=O)C3CCCCC3)cc2C1=O for me?
inactive

---

System: S. aureus RN4220
EXPERIMENT: growth inhibition call (relative growth <= 0.2)
MEASUREMENT_CONTEXT: 50 µM
The whole screen tested about 39,000 compounds, of which about 500 (1.3%) were called active. The list comes from a sample in which actives are over-represented; it also holds close analogues and randomly drawn compounds.
Use one of these outcomes when replying: YES for active, NO for inactive

# COMPOUND, LABEL_VALUE
rows = [
    ("C[C@H](CO)N1C[C@H](C)[C@@H](CN(C)Cc2ccncc2)OCCCC[C@H](C)Oc2ccc(NC(=O)Nc3ccc4c(c3)OCO4)cc2C1=O", "NO"),
    ("C[C@@H]1CCCCO[C@@H](CN(C)C(=O)c2ccncc2)[C@H](C)CN([C@H](C)CO)C(=O)c2cc(NC(=O)C3CCCCC3)ccc2O1", "NO"),
    ("Cn1nnnc1SCC1=C(C(=O)[O-])N2C(=O)C(NC(=O)C(O)c3ccccc3)C2SC1.[Na+] (stereo not given)", "YES"),
    ("Cc1ccc(S(=O)(=O)N[C@@H]2CC[C@H](CCNC(=O)CN3CCOCC3)O[C@@H]2CO)cc1", "NO"),
]

Now consider the entry below.
For this compound, state the assay outcome: CC(C)NC(=O)N[C@@H]1C=C[C@H](CC(=O)O)O[C@H]1CO
NO

---

Tested on: S. aureus RN4220
EXPERIMENT: growth inhibition call (relative growth <= 0.2)
MEASUREMENT_CONTEXT: 50 µM
The campaign covered roughly 39,000 compounds. About 500 (1.3%) were called active. The full list was thinned out, with actives kept by preference.
REPORTED_METRIC: growth inhibition call

Reference set, count: 7
# CHEMICAL_STRING, REPORTED_MEASUREMENT
measured = [
    ("C[C@@H]1CN([C@@H](C)CO)S(=O)(=O)c2ccc(C#Cc3ccccc3)cc2O[C@@H]1CN(C)C(=O)CN(C)C", "active"),
    ("C[C@H]1CN([C@@H](C)CO)S(=O)(=O)c2ccc(C#Cc3ccc(F)cc3)cc2O[C@@H]1CN(C)C(=O)CN(C)C", "inactive"),
    ("C[C@H]1CC[C@@H]2N(C1)C[C@@H]1[C@H]([C@@H](O)[C@H](O)[C@]3(O)[C@H]1C[C@@]14O[C@]5(O)[C@@H](C[C@@H](O)[C@@H]31)[C@]4(C)CC[C@@H]5O)[C@]2(C)O", "inactive"),
    ("C[C@@H]1CN([C@@H](C)CO)S(=O)(=O)c2ccc(C#Cc3ccc(F)cc3)cc2O[C@H]1CN(C)C(=O)CN(C)C", "inactive"),
    ("COc1c(C)cc(-c2cc3c(c(-c4ccccc4)n2)[Si](C(C)C)(C(C)C)O[C@H]3c2ccccc2)cc1C", "inactive"),
    ("C[C@@H]1CN([C@H](C)CO)S(=O)(=O)c2ccc(-c3cccnc3)cc2O[C@@H]1CN(C)C(=O)c1ccc2c(c1)OCO2", "inactive"),
    ("C[C@@H]1CN([C@@H](C)CO)C(=O)c2cc(NC(=O)NC3CCCCC3)ccc2O[C@@H]1CN(C)Cc1ccc(Oc2ccccc2)cc1", "inactive"),
]

Next compound, please.
Fill blank: measured growth inhibition call of the compound COc1cc(Cc2cc3c(c(CCc4ccccc4)n2)[Si](C(C)C)(C(C)C)O[C@H]3c2ccccc2)cc(OC)c1OC is ____.
active

---

Tested on: S. aureus RN4220
EXPERIMENT: growth inhibition call (relative growth <= 0.2)
MEASUREMENT_CONTEXT: 50 µM
The whole screen tested about 39,000 compounds, of which about 500 (1.3%) were called active. Only a selection was taken, and actives are over-represented in it overall.
REPORTED_METRIC: growth inhibition call

Example entries begin here.
# COMPOUND, REPORTED_MEASUREMENT
records = [
    ("Cc1noc(C)c1S(=O)(=O)N(C)C[C@@H]1Oc2ccc(NS(=O)(=O)c3ccc(F)cc3)cc2C(=O)N([C@H](C)CO)C[C@@H]1C", "inactive"),
    ("CC=C(C(=CC)c1ccc(O)cc1)c1ccc(O)cc1", "active"),
    ("CC(C)(C)C1CCC(OC[C@@H](O)CN2CCC(CN3C(=O)c4cccc5cccc(c45)C3=O)CC2)CC1 (stereo not given in full)", "active"),
    ("CC(=O)N(C)C[C@H]1Oc2ncc(C#C[C@H](C)O)cc2C(=O)N([C@H](C)CO)C[C@H]1C", "inactive"),
    ("Cc1noc(C)c1NC(=O)N(C)C[C@@H]1Oc2c(NC(=O)c3ccncc3)cccc2C(=O)N([C@@H](C)CO)C[C@H]1C", "inactive"),
]

For the compound O=c1cc(CN2CC[C@H](N3CCOCC3)[C@H](CCCO)C2)nc2c(O)cccn12 , what growth inhibition call is on record?
inactive

Looking for the measured growth inhibition call of C[C@@H]1O[C@@H](O[C@@H]2[C@@H](O)[C@H](OCCc3ccc(O)c(O)c3)O[C@H](COC(=O)/C=C/c3ccc(O)c(O)c3)[C@H]2O)[C@H](O)[C@H](O)[C@H]1O , can you help?
inactive

Fill in the blank: the reported growth inhibition call of C[C@H](O)C#Cc1ccc2c(c1)O[C@H](CN(C)C(=O)c1ccccc1)[C@@H](C)CN([C@H](C)CO)S2(=O)=O is ____.
inactive

Consider the compound CCOC(=O)c1cc2c(c(-c3cccc(Br)c3)n1)[C@@H](CCO[Si](C)(C)C(C)(C)C)N(S(=O)(=O)C(C)(C)C)C2 and give its measured growth inhibition call.
inactive

Recorded growth inhibition call of COc1ccc(C2=N[C@@H](c3ccc(Cl)cc3)[C@@H](c3ccc(Cl)cc3)N2C(=O)N2CCNC(=O)C2)c(OC(C)C)c1 , please.
active

For the compound C[C@@H]1CN([C@@H](C)CO)C(=O)c2cc(-c3cccc(C(=O)N(C)C)c3)cnc2O[C@H]1CN(C)S(=O)(=O)c1ccc(F)cc1 , what growth inhibition call is on record?
inactive

---

Tested on: S. aureus RN4220
EXPERIMENT: growth inhibition call (relative growth <= 0.2)
MEASUREMENT_CONTEXT: 50 µM
Among all 39,000 compounds or so, about 500 (1.3%) were called active. The full list was thinned out, with actives kept by preference.
REPORTED_METRIC: growth inhibition call

Solved entries:
# MOLECULE, REPORTED_MEASUREMENT
data = [
    ("CC(C)(Sc1ccc(CCN(CCCCC2CCCCC2)C(=O)NC2CCCCC2)cc1)C(=O)O", "active"),
    ("CC(=O)Oc1cc(-c2coc3cc(OC(C)=O)c(OC(C)=O)c(OC(C)=O)c3c2=O)cc(OC(C)=O)c1OC(C)=O", "inactive"),
    ("C[C@H](CO)N1C[C@H](C)[C@@H](CN(C)C(=O)NC2CCCCC2)OCCCC[C@H](C)Oc2ccc(NC(=O)c3ccncc3)cc2C1=O", "inactive"),
    ("CN(C)C1C(O)=C(C(N)=O)C(=O)C2(O)C(O)=C3C(=O)c4c(O)cccc4C(C)(O)C3CC12.Cl (centres undefined)", "inactive"),
    ("CC1CCC2(C)C(C=O)=CCCC2C1(C)CC1OC(O)C(=O)C12CO2 (centres undefined)", "active"),
    ("C[C@H]1CN([C@@H](C)CO)C(=O)c2cc(C#Cc3ccccc3F)cnc2O[C@@H]1CN(C)C(=O)C1CCOCC1", "inactive"),
]

Query molecule follows.
Please report the recorded growth inhibition call for CC(C)NC(=O)Nc1ccc2c(c1)C(=O)N([C@H](C)CO)C[C@@H](C)[C@H](CN(C)C(=O)C1CCCCC1)OCCCC[C@H](C)O2 .
inactive
